- Tested on: ECHCG
- assay.comment: Pre-emergence herbicidal activity, glasshouse pot test
- Type: in vivo
- reported.conditions: rate 1000 g/Ha, evaluated after 13 days, scale 0-5
property: ECHCG damage score, application pre-emergence
Would you mind answering with just the numeric figure?

Given COCC1C(O)N(c2cc(C(F)(F)F)ccn2)C(=O)N1C (racemic) [Compound A54] , respond with its ECHCG damage score, application pre-emergence.
2

Given CCOC1C(OC(=O)[C@@H](C)c2ccc(CC(C)C)cc2)N(c2cc(C(F)(F)F)ccn2)C(=O)N1C (stereo partly drawn) [Compound A99] , respond with its ECHCG damage score, application pre-emergence.
0

Given CC1C(O)N(c2cc(C(C)(F)F)ccn2)C(=O)N1C (stereo not drawn) [Compound A60] , respond with its ECHCG damage score, application pre-emergence.
1
